B1: Chromodomain-helicase-DNA-binding protein 4, residues 365 to 417; numbered along this chain, Q14839 (parent)
chain: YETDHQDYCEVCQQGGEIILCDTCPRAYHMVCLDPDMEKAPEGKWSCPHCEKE

# Variants of: B1
# TEST_NAME: abundance fitness (aPCA) (normalised: wild type 0, dead -1); higher = more abundant; growth selection in yeast, the domain comes from the species named
# RECORDED_CONDITIONS: Homo sapiens
Documented abundance fitness across a set of variants

Y8G = -0.291
W45A = 0.005
K52I = -0.586
Q6C = -0.212
R26K = -0.065
E51I = -0.331
C47W = -1.09
H29V = -1.15
L33K = -0.103
C9I = -0.868

INPUT: Find the recorded abundance fitness belonging to `T3W` and report it.
OUTPUT: -0.182

INPUT: Proceed to `Y28C`
OUTPUT: -0.582

INPUT: Proceed to `C50Y`
OUTPUT: -0.679

INPUT: Proceed to `D4F`
OUTPUT: -0.031
